Reference source for all entries: paper PMC5501184

molecular target: hDAT (Homo sapiens); assay: PDSP screen: [^3H]24 binding at hDAT; conditions: read-out: hDAT Binding Inhibition, % of control
Sequence (Q01959 whole entry): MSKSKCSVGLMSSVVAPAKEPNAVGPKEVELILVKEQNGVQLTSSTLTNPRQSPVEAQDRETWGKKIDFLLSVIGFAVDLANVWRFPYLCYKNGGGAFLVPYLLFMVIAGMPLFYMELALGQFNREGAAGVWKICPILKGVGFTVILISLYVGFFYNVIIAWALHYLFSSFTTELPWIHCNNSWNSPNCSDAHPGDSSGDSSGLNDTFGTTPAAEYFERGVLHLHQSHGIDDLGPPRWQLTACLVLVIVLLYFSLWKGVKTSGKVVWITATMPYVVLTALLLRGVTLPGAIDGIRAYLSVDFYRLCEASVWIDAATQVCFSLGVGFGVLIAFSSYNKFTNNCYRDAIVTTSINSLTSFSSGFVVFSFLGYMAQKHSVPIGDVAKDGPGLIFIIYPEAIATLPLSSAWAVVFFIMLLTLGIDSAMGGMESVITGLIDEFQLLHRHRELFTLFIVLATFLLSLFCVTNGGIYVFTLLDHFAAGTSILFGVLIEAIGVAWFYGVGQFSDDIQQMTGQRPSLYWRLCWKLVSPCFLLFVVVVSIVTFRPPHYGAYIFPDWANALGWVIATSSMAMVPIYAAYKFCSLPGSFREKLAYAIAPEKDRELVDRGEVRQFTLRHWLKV
Assign inhibition at 10 µM to each entry below.

INPUT: I would be grateful if you could share the reported inhibition at 10 µM for CNc1nc(C#Cc2ccc(Cl)s2)nc2c1ncn2[C@H]1[C@H](O)[C@H](O)[C@]2(C(=O)OCCC3CCCCC3)C[C@H]12 .
OUTPUT: -20 to 20%

INPUT: I would be grateful if you could share the reported inhibition at 10 µM for CNc1nc(C#Cc2ccc(Br)s2)nc2c1ncn2[C@H]1[C@H](O)[C@H](O)[C@]2(C(=O)OC)C[C@H]12 .
OUTPUT: < -20%

INPUT: I would be grateful if you could share the reported inhibition at 10 µM for CCOC(=O)[C@@]12C[C@@H]1[C@@H](n1cnc3c(NC)nc(C#Cc4ccc(Br)s4)nc31)[C@H](O)[C@@H]2O .
OUTPUT: < -20%

INPUT: I would be grateful if you could share the reported inhibition at 10 µM for CCNc1cc(C#Cc2ccc(Cl)s2)nc2c1ncn2[C@H]1[C@H](O)[C@H](O)[C@]2(C(=O)NC)C[C@H]12 .
OUTPUT: -20 to 20%

INPUT: I would be grateful if you could share the reported inhibition at 10 µM for CNC(=O)[C@H]1O[C@@H](n2cnc3c(NC)nc(C#Cc4ccc(Cl)s4)nc32)[C@H](O)[C@@H]1O .
OUTPUT: < -20%

INPUT: I would be grateful if you could share the reported inhibition at 10 µM for CNc1nc(C#Cc2ccc(Cl)s2)nc2c1ncn2[C@H]1[C@H](O)[C@H](O)[C@]2(C(=O)OC)C[C@H]12 .
OUTPUT: < -20%

INPUT: I would be grateful if you could share the reported inhibition at 10 µM for CCOC(=O)[C@@]12C[C@@H]1[C@@H](n1cnc3c(NC)nc(C#Cc4ccc(Cl)s4)nc31)[C@H](O)[C@@H]2O .
OUTPUT: < -20%

* * *

target: mDAT (Mus musculus, UniProt Q61327)
Sequence (Q61327 whole entry): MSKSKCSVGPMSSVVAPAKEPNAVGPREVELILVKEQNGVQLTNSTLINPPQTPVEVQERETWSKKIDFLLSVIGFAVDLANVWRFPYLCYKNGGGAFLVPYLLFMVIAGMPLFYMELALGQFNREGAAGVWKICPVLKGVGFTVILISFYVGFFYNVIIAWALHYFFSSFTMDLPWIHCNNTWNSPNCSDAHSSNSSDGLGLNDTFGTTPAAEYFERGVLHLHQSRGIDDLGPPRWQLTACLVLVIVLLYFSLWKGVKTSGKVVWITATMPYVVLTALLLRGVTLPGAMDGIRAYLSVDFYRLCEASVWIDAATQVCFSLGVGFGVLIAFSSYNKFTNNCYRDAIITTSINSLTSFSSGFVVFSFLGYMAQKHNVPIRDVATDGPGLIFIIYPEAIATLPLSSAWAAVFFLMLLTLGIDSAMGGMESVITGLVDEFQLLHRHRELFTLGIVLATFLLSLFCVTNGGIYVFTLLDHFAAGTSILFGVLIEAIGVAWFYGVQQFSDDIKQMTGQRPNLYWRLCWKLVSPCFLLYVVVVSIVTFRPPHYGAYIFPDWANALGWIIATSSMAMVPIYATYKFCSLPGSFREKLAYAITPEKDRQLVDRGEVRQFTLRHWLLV
Measurement name: pKd
Lab note — pKd values are minus log10 of concentrations in M.

INPUT: I would be grateful if you could share the reported pKd for COC(=O)[C@H]1[C@@H](c2ccc(I)cc2)CC2CC[C@H]1N2C [compound 23] .
OUTPUT: 8.41
